biological target: T1, Cyno CD47 ECD protein, His-tagged, monomer (cyno); experiment: ProteOn SPR; mAb captured, ECD monomer as analyte
T1 construct: extracellular domain; also called cynomolgus CD47
pKd: −log10 of the molar value.
endpoint: pKd

INSERT INTO results (binder, endpoint, obs_value) VALUES
  ('C47B243 (antibody, V domains shown, human IgG2sigma/kappa) VH: EVQLVQSGAEVKKPGESLKISCKGSGYSFTDYWIGWVRQMPGKGLEWMGIIYPGDSDTRYSPSFQGQVTISADKSISTAYLQWSSLKASDTAVYYCARVGRFASHQLDYWGQGTLVTVSS VL: EIVLTQSPATLSLSPGERATLSCRASQSVSNRLAWYQQKPGQAPRLLIYGASNRATGIPARFSGSGSGTDFTLTISSLEPEDFAVYYCQQGRSWPFTFGQGTKVEIK', 'pKd', 8.68),
  ('C47B222 (human IgG2sigma) (antibody, V domains shown, human IgG2sigma/kappa; also called IgG2 Fc-silent C47B222) VH: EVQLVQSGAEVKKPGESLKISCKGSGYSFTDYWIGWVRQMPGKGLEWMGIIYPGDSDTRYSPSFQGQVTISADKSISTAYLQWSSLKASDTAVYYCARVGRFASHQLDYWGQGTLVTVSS VL: EIVLTQSPATLSLSPGERATLSCRASQSVNNRLAWYQQKPGQAPRLLIHWASTRAIGIPARFSGSGSGTDFTLTISSLEPEDFAVYYCQQGASWPFTFGQGTKVEIK', 'pKd', 9.07),
  ('C47B241 (antibody, V domains shown, human IgG2sigma/kappa) VH: EVQLVQSGAEVKKPGESLKISCKGSGYSFDDSWIGWVRQMPGKGLEWMGIIYPGDSDTRYSPSFQGQVTISADKSISTAYLQWSSLKASDTAVYYCARVGRFASHQLDYWGQGTLVTVSS VL: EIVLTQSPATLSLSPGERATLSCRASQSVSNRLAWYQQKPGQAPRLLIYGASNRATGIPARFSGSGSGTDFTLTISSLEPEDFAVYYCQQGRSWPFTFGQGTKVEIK', 'pKd', 8.69);
